B1: FBXO34 (parent)
chain: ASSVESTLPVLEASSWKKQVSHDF

- Variants of: B1
- experimental_details: protein stability index of a GFP-peptide fusion (GPS, HEK-293T) (PSI 1-6); higher = more stable;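 note: lentivirally expressed fusions sorted by FACS into six bins by GFP to DsRed ratio, PSI derived from sequencing read proportions per bin multiplied by bin number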
- recorded_conditions: c terminus: a fixed tail appended
Tag: MET if measured protein stability index is not below 3, NOT MET if it is.

Task: Would you say S3Q shows protein stability index at minimum 3?
Result: NOT MET

Task: Would you say V20Q shows protein stability index at minimum 3?
Result: MET

Task: Would you say Q19I shows protein stability index at minimum 3?
Result: NOT MET

Task: Would you say V10N shows protein stability index at minimum 3?
Result: NOT MET

Task: Would you say A13C shows protein stability index at minimum 3?
Result: NOT MET

Task: Would you say A13T shows protein stability index at minimum 3?
Result: NOT MET

Task: Would you say S3F shows protein stability index at minimum 3?
Result: NOT MET

Task: Would you say V10L shows protein stability index at minimum 3?
Result: NOT MET

Task: Would you say A1M shows protein stability index at minimum 3?
Result: NOT MET

Task: Would you say F24S shows protein stability index at minimum 3?
Result: MET

Task: Would you say H22E shows protein stability index at minimum 3?
Result: NOT MET

Task: Would you say E5F shows protein stability index at minimum 3?
Result: NOT MET

Task: Would you say K17L shows protein stability index at minimum 3?
Result: NOT MET

Task: Would you say W16F shows protein stability index at minimum 3?
Result: MET

Task: Would you say D23W shows protein stability index at minimum 3?
Result: NOT MET

Task: Would you say V20D shows protein stability index at minimum 3?
Result: MET

Task: Would you say S14R shows protein stability index at minimum 3?
Result: NOT MET

Task: Would you say L11F shows protein stability index at minimum 3?
Result: NOT MET

Task: Would you say L8F shows protein stability index at minimum 3?
Result: NOT MET

Task: Would you say S3C shows protein stability index at minimum 3?
Result: NOT MET

Task: Would you say S21D shows protein stability index at minimum 3?
Result: MET

Task: Would you say S6N shows protein stability index at minimum 3?
Result: MET

Task: Would you say T7S shows protein stability index at minimum 3?
Result: MET

Task: Would you say T7L shows protein stability index at minimum 3?
Result: NOT MET

Task: Would you say K17P shows protein stability index at minimum 3?
Result: MET

Task: Would you say H22P shows protein stability index at minimum 3?
Result: MET

Task: Would you say T7N shows protein stability index at minimum 3?
Result: MET

Task: Would you say A13Q shows protein stability index at minimum 3?
Result: NOT MET

Task: Would you say K17S shows protein stability index at minimum 3?
Result: NOT MET

Task: Would you say S21C shows protein stability index at minimum 3?
Result: NOT MET

Task: Would you say S14L shows protein stability index at minimum 3?
Result: NOT MET

Task: Would you say V20Y shows protein stability index at minimum 3?
Result: MET

Task: Would you say L8M shows protein stability index at minimum 3?
Result: NOT MET

Task: Would you say S3D shows protein stability index at minimum 3?
Result: MET

Task: Would you say E5W shows protein stability index at minimum 3?
Result: NOT MET

Task: Would you say P9M shows protein stability index at minimum 3?
Result: NOT MET

Task: Would you say H22Q shows protein stability index at minimum 3?
Result: NOT MET

Task: Would you say T7A shows protein stability index at minimum 3?
Result: NOT MET

Task: Would you say E12V shows protein stability index at minimum 3?
Result: NOT MET

Task: Would you say K18I shows protein stability index at minimum 3?
Result: NOT MET

Task: Would you say Q19L shows protein stability index at minimum 3?
Result: NOT MET

Task: Would you say V20H shows protein stability index at minimum 3?
Result: MET

Task: Would you say V4Y shows protein stability index at minimum 3?
Result: NOT MET

Task: Would you say V10W shows protein stability index at minimum 3?
Result: NOT MET

Task: Would you say V4E shows protein stability index at minimum 3?
Result: MET

Task: Would you say W16N shows protein stability index at minimum 3?
Result: MET

Task: Would you say P9I shows protein stability index at minimum 3?
Result: NOT MET

Task: Would you say V4D shows protein stability index at minimum 3?
Result: NOT MET

Task: Would you say S6A shows protein stability index at minimum 3?
Result: MET

Task: Would you say E12N shows protein stability index at minimum 3?
Result: MET

Task: Would you say H22N shows protein stability index at minimum 3?
Result: NOT MET

Task: Would you say L8E shows protein stability index at minimum 3?
Result: MET

Task: Would you say A1C shows protein stability index at minimum 3?
Result: NOT MET

Task: Would you say E12H shows protein stability index at minimum 3?
Result: NOT MET

Task: Would you say S15H shows protein stability index at minimum 3?
Result: MET

Task: Would you say K18E shows protein stability index at minimum 3?
Result: NOT MET

Task: Would you say V4I shows protein stability index at minimum 3?
Result: NOT MET

Task: Would you say S2N shows protein stability index at minimum 3?
Result: NOT MET

Task: Would you say S15D shows protein stability index at minimum 3?
Result: MET

Task: Would you say P9F shows protein stability index at minimum 3?
Result: NOT MET

Task: Would you say S3L shows protein stability index at minimum 3?
Result: NOT MET

Task: Would you say S14E shows protein stability index at minimum 3?
Result: NOT MET

Task: Would you say S21H shows protein stability index at minimum 3?
Result: MET

Task: Would you say A1I shows protein stability index at minimum 3?
Result: NOT MET

Task: Would you say S3G shows protein stability index at minimum 3?
Result: MET

Task: Would you say A13I shows protein stability index at minimum 3?
Result: NOT MET

Task: Would you say L8Y shows protein stability index at minimum 3?
Result: NOT MET

Task: Would you say S3A shows protein stability index at minimum 3?
Result: NOT MET

Task: Would you say E12P shows protein stability index at minimum 3?
Result: MET

Task: Would you say L8C shows protein stability index at minimum 3?
Result: MET

Task: Would you say S3H shows protein stability index at minimum 3?
Result: MET

Task: Would you say V20N shows protein stability index at minimum 3?
Result: MET

Task: Would you say E5Q shows protein stability index at minimum 3?
Result: NOT MET

Task: Would you say S14M shows protein stability index at minimum 3?
Result: NOT MET

Task: Would you say E12I shows protein stability index at minimum 3?
Result: NOT MET

Task: Would you say V10R shows protein stability index at minimum 3?
Result: NOT MET

Task: Would you say F24A shows protein stability index at minimum 3?
Result: MET

Task: Would you say W16Q shows protein stability index at minimum 3?
Result: MET

Task: Would you say S14F shows protein stability index at minimum 3?
Result: NOT MET

Task: Would you say F24N shows protein stability index at minimum 3?
Result: MET
